These data points were gathered from ChEMBL document CHEMBL1121950.

Known pKi of a selection of compounds
molecular target: UniProt:P12928; assay: Inhibitory constant for inhibition of pyruvate kinase obtained from rat liver (PK-L) was determined using ADP as competitive inhibitor
pKi: −log10 of the molar value.

| Compound | pKi |
| --- | --- |
| CO[C@H]1[C@@H](O)[C@H](n2cnc3c(N)ncnc32)O[C@@H]1COP(=O)(O)OP(=O)(O)O | 1.49 |
| CCSc1nc2c(N)ncnc2n1C1O[C@H](COP(=O)(O)OP(=O)(O)O)[C@@H](O)[C@H]1O (stereo partly drawn) | 2.08 |
| CSc1nc2c(N)ncnc2n1C1O[C@H](COP(=O)(O)OP(=O)(O)O)[C@@H](O)[C@H]1O (stereo partly drawn) | 2.12 |

====

molecular target: Pyruvate kinase PKLR (Rattus norvegicus, UniProt P12928); assay: Inhibition of rat liver pyruvate kinase (PK-L) at 10.7 mM
Sequence (P12928 whole entry): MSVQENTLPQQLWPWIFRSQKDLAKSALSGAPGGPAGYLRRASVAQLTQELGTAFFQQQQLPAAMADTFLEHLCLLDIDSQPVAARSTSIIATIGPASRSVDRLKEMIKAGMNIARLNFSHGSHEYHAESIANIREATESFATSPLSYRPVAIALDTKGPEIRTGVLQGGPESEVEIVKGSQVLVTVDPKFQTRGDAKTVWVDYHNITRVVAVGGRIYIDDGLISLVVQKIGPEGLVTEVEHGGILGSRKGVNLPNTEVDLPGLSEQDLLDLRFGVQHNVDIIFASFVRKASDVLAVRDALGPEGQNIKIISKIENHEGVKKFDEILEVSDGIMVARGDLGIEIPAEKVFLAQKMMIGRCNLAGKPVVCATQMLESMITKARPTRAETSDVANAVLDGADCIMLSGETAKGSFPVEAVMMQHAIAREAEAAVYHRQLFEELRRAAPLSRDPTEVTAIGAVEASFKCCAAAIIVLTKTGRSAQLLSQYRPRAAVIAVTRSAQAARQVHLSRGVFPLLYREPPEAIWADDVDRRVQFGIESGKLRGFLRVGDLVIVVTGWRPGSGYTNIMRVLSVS
Property Label: Ki (mM)

| Molecule | Property Label | Unit | Quantitative Result |
| --- | --- | --- | --- |
| C[C@@H](OP(=O)(O)OP(=O)(O)O)[C@H]1OC(n2cnc3c(N)ncnc32)[C@H](O)[C@@H]1O (stereo partly specified) | Ki | mM | 5.4 |

====

target: UniProt P11980; test: Inhibition of rat muscle pyruvate kinase (PK-M) at 6.7 mM
pKi: −log10 of the molar value.

| Compound | pKi |
| --- | --- |
| C[C@@H](OP(=O)(O)OP(=O)(O)O)[C@H]1OC(n2cnc3c(N)ncnc32)[C@H](O)[C@@H]1O (stereo partly specified) | 2.15 |

====

Here the recorded pKi is given for each entry.
molecular target: Pyruvate kinase PKM (Rattus norvegicus); experiment: Inhibition of rat muscle pyruvate kinase (PK-M)
Sequence (P11980 whole entry): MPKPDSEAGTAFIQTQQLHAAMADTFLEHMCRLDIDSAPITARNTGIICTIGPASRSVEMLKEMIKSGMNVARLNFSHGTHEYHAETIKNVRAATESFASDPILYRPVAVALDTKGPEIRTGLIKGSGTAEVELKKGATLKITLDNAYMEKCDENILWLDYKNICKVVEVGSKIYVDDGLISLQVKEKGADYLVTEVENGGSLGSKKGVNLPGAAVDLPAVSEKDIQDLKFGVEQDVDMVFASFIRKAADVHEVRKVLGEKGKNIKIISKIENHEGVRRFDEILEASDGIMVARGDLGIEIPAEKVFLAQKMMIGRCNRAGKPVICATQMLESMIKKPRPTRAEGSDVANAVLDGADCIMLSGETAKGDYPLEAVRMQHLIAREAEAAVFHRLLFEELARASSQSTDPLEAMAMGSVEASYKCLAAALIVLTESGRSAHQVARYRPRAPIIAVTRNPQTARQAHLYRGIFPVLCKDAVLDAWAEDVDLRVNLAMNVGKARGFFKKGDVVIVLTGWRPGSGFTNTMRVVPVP
pKi: −log10 of the molar value.

| Molecule | pKi |
| --- | --- |
| CO[C@H]1[C@@H](O)[C@H](n2cnc3c(N)ncnc32)O[C@@H]1COP(=O)(O)OP(=O)(O)O | 2.03 |
| CC1O[C@@H]2[C@H](O1)[C@@H](COP(=O)(O)OP(=O)(O)O)O[C@H]2n1cnc2c(N)ncnc21 (stereo not given in full) | 2.80 |
| CSc1nc2c(N)ncnc2n1C1O[C@H](COP(=O)(O)OP(=O)(O)O)[C@@H](O)[C@H]1O (stereo not given in full) | 2.37 |
| CCSc1nc2c(N)ncnc2n1C1O[C@H](COP(=O)(O)OP(=O)(O)O)[C@@H](O)[C@H]1O (stereo not given in full) | 2.43 |
| CCCNc1nc2c(N)ncnc2n1C1O[C@H](COP(=O)(O)OP(=O)(O)O)[C@@H](O)[C@H]1O (stereo not given in full) | 3.05 |
